Some binders, each annotated with its measured cAMP EC50 (1.0% HSA).
subject of test: human glucagon receptor (human, UniProt P47871 26-477)
test description: cell-based or functional assay

A selection of reference data follows.
binder	cAMP EC50 (1.0% HSA)
YXEGTXTSDXXIXLDXIAQXEFIKXLIKGGPSSGAPPPS (Y-Aib-EGT-αMeF(2F)-TSD-4Pal-Aib-I-αMeL-LD-Orn-IAQ-Aib-EFIK((2-[2-(2-Amino-ethoxy)-ethoxy]-acetyl)2-(γ-Glu)-CO-(CH2)12-CO2H)-αMeY-LIK((2-[2-(2-Amino-ethoxy)-ethoxy]-acetyl)2-(γ-Glu)-CO-(CH2)12-CO2H)GGPSSGAPPPS-NH2) [Example 219]	> 9.95 µM
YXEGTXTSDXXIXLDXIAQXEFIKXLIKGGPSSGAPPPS (Y-Aib-EGT-αMeF(2F)-TSD-4Pal-Aib-I-αMeL-LD-Orn-IAQ-Aib-EFIK((2-[2-(2-Amino-ethoxy)-ethoxy]-acetyl)3-(γ-Glu)-CO-(CH2)12-CO2H)-αMeY-LIK((2-[2-(2-Amino-ethoxy)-ethoxy]-acetyl)3-(γ-Glu)-CO-(CH2)12-CO2H)GGPSSGAPPPS-NH2) [Example 342]	> 9.95 µM

According to the records, this binder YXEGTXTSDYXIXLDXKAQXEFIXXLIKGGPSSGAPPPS (Y-Aib-EGT-αMeF(2F)-TSDY-Aib-I-αMeL-LD-Orn-K((2-[2-(2-Amino-ethoxy)-ethoxy]-acetyl)2-(γ-Glu)-CO-(CH2)12-CO2H)AQ-Aib-EFI-(D-Glu)-αMeY-LIK((2-[2-(2-Amino-ethoxy)-ethoxy]-acetyl)2-(γ-Glu)-CO-(CH2)12-CO2H)GGPSSGAPPPS-NH2) [Example 231] displays cAMP EC50 (1.0% HSA) of > 9.95 µM
